assay: qHTS for Inhibitors of Cell Surface uPA Generation: Confirmatory Assay for Cherry-picked Compounds; conditions: cell surface uPA activity generation, qHTS confirmation; series mostly up to 115 µM
Results filed as inconclusive are left out. Active and inactive are the calls of the source. The call rests on the fitted dose curve; in most records, active means well fitted activation curve with a large enough effect; inconclusive means small, poorly fitted or top-dose-only effect; inactive means flat fitted curve, though single readings scatter.
Thanks in advance; please answer with one of these: active, inactive

Compound	Category
Cc1ccc(S(=O)(=O)N2CCOCC2)cc1C(=O)OC1CCOC1=O (stereo unspecified)	inactive
COC(=O)c1c(NC(=O)c2c(OC)cccc2OC)sc2c1C(C(=O)OC)CC2 (stereo unspecified)	active
COc1ccccc1C(=O)NCCC(=O)NCC(c1ccc(F)cc1)N1CCOCC1 (stereo unspecified)	inactive
O=C(N/N=C/c1cccnc1)c1ccccc1[N+](=O)[O-]	inactive
Cc1nc(NC(=O)COC(=O)CCc2ccccc2)c(Cl)cc1Cl	inactive

Per the records of this test, what outcome belongs to "O=C(c1cccc(F)c1)N1CCN(Cc2cccc(Br)c2)CC1" ?
inactive

Per the records of this test, what outcome belongs to "COc1ccc(CCNC(=O)COC(=O)CNS(=O)(=O)c2ccc(SC)c([N+](=O)[O-])c2)cc1" ?
inactive

Per the records of this test, what outcome belongs to "CCOc1ccc(-c2n[nH]c(=S)n2Cc2ccccc2)cc1" ?
inactive

Per the records of this test, what outcome belongs to "Cc1cccc(C(=O)NC2CCN(CC(=O)N3CCOCC3)CC2)c1" ?
inactive

Per the records of this test, what outcome belongs to "CCCCOc1ccc(S(=O)(=O)N2CCCCC2)cc1" ?
inactive

Per the records of this test, what outcome belongs to "CCn1c2ccccc2c2n[nH]c(=S)nc21" ?
inactive

The measurements presented in this section are drawn from PubChem BioAssay AID720519.
